- Test system: HCT-116 colon
- ASSAY SUMMARY: NCI tumour cell line growth inhibition, 48 h
READOUT: TGI

Worked set:
O=[N+]([O-])c1cc(I)cc(/C=N/NS(=O)(=O)c2ccc(Cl)cc2)c1O: 41.3 µM
OCC(O)COCn1cc(Cn2ncc3c(NCc4ccccc4)ncnc32)nn1 (configuration not stated): > 100 µM
O=C1NC2(CCCC2)C2CCCCC12O (configuration not stated): > 100 µM
O=c1cc(-c2ccccc2)oc2c1ccc1ccccc12: > 100 µM
CCCCc1n(Cc2ccc3ccccc3n2)cc[n+]1Cc1ccc2ccccc2n1: 11 µM
COc1ccccc1NC(=O)C1=C(C)NC(C)=C(C(=O)Nc2ccccc2OC)C1c1ccccc1Cl: > 100 µM

Exercise: System HCT-116 colon. Read-out TGI. Item Cc1cccc2c(NCCN(C)C)c3cccc(C(=O)NCCN(C)C)c3nc12 . Report value.
Key: 4.87 µM

Exercise: System HCT-116 colon. Read-out TGI. Item N#CC(C(=O)CCC(=O)Nc1cccc(C(F)(F)F)c1)c1ccccc1 (configuration not stated) . Report value.
Key: > 100 µM

Exercise: System HCT-116 colon. Read-out TGI. Item C#Cc1cccc(NC(=O)c2cccc(NC(=O)CCl)c2)c1 . Report value.
Key: 44.6 µM

Exercise: System HCT-116 colon. Read-out TGI. Item c1ccc(SCCc2ccncc2)cc1 . Report value.
Key: > 100 µM

The measured values listed here are drawn from PubChem BioAssay (NCI).
